Origin of values: paper PMC3896602

# koff listing for each entry below
- measurement-target: human CXCL13 (Homo sapiens, UniProt O43927)
- Sequence (O43927 23-109): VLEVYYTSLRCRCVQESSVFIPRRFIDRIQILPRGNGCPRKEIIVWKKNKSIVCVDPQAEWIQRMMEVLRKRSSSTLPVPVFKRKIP
- test-description: SPR
result-type: koff

[[record]]
binder = "anti-CXCL13 C07 scFv-Fc fusion protein (Fc fusion, human) VH: QVQLVQSGAEVKKPGSSVKVSCKASGGTFSSYAISWVRQAPGQGLEWMGGIIPIFGTANYAQKFQGRVTITADESTSTAYMELSSLRSEDTAVYYCAREPDYYDSSGYYPIDAFDIWGQGTTVTVSS VL: QSALTQPASVSASPGQSITISCTGTSSDVGAYDWVSWYQQHPGKAPKLLIFDVNNRPSGVSHRFSGSKSGNTASLTISGLQAEDEADYYCSSPTFTEPYVFGTGTKVTVL"
result_type = "koff"
result = "0.0002 s⁻¹"

[[record]]
binder = "anti-CXCL13 H08 scFv-Fc fusion protein (Fc fusion, human) VH: QVQLVQSGAEVKKPGSSVKVSCKASGGTFSSYAISWVRQAPGQGLEWMGGIIPIFGTANYAQKFQGRVTITADESTSTAYMELSSLRSEDTAVYYCAREPDYYDSSGYYPIDAFDIWGQGTTVTVSS VL: QSALTQPASVSASPGQSITISCTGTSSDVGAYDWVSWYQQHPGKAPKLLIFDVNNRPSGVSHRFSGSKSGNTASLTISGLQAEDEADYYCTSVTVEDTYVFGTGTKVTVL"
result_type = "koff"
result = "0.0002 s⁻¹"

[[record]]
binder = "anti-CXCL13 E10 scFv-Fc fusion protein (Fc fusion, human) VH: QVQLVQSGAEVKKPGSSVKVSCKASGGTFSSYAISWVRQAPGQGLEWMGGIIPIFGTANYAQKFQGRVTITADESTSTAYMELSSLRSEDTAVYYCAREPDYYDSSGYYPIDAFDIWGQGTTVTVSS VL: QSALTQPASVSASPGQSITISCTGTSSDVGAYDWVSWYQQHPGKAPKLLIFDVNNRPSGVSHRFSGSKSGNTASLTISGLQAEDEADYYCASATLLDTYVFGTGTKVTVL"
result_type = "koff"
result = "0.0005 s⁻¹"

[[record]]
binder = "anti-CXCL13 3B4 scFv-Fc fusion protein (Fc fusion, human) VH: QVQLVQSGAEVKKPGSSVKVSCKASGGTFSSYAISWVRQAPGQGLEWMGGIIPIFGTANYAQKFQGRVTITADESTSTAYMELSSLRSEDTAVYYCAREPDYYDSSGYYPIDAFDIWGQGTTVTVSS VL: QSALTQPASVSASPGQSITISCTGTSSDVGAYDWVSWYQQHPGKAPKLLIFDVNNRPSGVSHRFSGSKSGNTASLTISGLQAEDEADYYCSSYTRRDTYVFGTGTKVTVL"
result_type = "koff"
result = "0.0121 s⁻¹"

[[record]]
binder = "anti-CXCL13 C04 scFv-Fc fusion protein (Fc fusion, human) VH: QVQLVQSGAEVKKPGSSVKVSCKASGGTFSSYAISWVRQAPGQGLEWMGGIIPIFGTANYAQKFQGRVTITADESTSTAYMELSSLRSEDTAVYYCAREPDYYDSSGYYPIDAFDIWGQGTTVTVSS VL: QSALTQPASVSASPGQSITISCTGTSSDVGAYDWVSWYQQHPGKAPKLLIFDVNNRPSGVSHRFSGSKSGNTASLTISGLQAEDEADYYCSSAGIISVYVFGTGTKVTVL"
result_type = "koff"
result = "0.0003 s⁻¹"

[[record]]
binder = "anti-CXCL13 H06 scFv-Fc fusion protein (Fc fusion, human) VH: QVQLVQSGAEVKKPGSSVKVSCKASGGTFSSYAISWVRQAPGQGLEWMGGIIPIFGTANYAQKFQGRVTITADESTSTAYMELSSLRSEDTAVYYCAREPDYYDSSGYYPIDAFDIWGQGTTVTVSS VL: QSALTQPASVSASPGQSITISCTGTSSDVGAYDWVSWYQQHPGKAPKLLIFDVNNRPSGVSHRFSGSKSGNTASLTISGLQAEDEADYYCASVVVTDTYVFGTGTKVTVL"
result_type = "koff"
result = "0.0003 s⁻¹"

[[record]]
binder = "anti-CXCL13 A01 scFv-Fc fusion protein (Fc fusion, human) VH: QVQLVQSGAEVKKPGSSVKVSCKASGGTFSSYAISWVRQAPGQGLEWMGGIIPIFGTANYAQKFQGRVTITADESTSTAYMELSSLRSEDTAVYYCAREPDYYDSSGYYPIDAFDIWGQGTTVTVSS VL: QSALTQPASVSASPGQSITISCTGTSSDVGAYDWVSWYQQHPGKAPKLLIFDVNNRPSGVSHRFSGSKSGNTASLTISGLQAEDEADYYCASTTLFDTYVFGTGTKVTVL"
result_type = "koff"
result = "0.0003 s⁻¹"

